Hey, just so you know, these numbers are from patent US9902736B2.

test system: CNE; test: Solid tumor cell growth inhibition, MTT, 72 h; assay type: cell-based, human; conditions: Homo sapiens, CNE; 72 h, MTT
property name: IC50 (µg/mL)

>  <compound>
C=C1C(=O)[C@]23[C@H](OC(=O)c4ccc(OC)cc4)[C@H]1CC[C@H]2[C@@]12CO[C@@]3(O)[C@@H](O)[C@@H]1C(C)(C)CCC2OC(C)=O (some centres unmarked)

>  <test system>
CNE

>  <value operator>
=

>  <assay result>
1.18

$$$$
>  <compound>
C=C1C(=O)[C@]23[C@H](OC(=O)c4ccccc4Br)[C@H]1CC[C@H]2[C@@]12CO[C@@]3(O)[C@@H](O)[C@@H]1C(C)(C)CCC2=O

>  <test system>
CNE

>  <value operator>
=

>  <assay result>
1.8

$$$$
>  <compound>
C=C1C(=O)[C@]23[C@H](OC(=O)C4CCN(S(=O)(=O)c5ccccc5)CC4)[C@H]1CC[C@H]2[C@@]12CO[C@@]3(O)[C@@H](O)[C@@H]1C(C)(C)CCC2=O

>  <test system>
CNE

>  <value operator>
>

>  <assay result>
16

$$$$
>  <compound>
C=C1C(=O)[C@]23[C@H](OC(=O)c4ccccc4)[C@H]1CC[C@H]2[C@@]12CO[C@@]3(O)[C@@H](O)[C@@H]1C(C)(C)CCC2=O

>  <test system>
CNE

>  <value operator>
=

>  <assay result>
1.41

$$$$
>  <compound>
C=C1C(=O)[C@]23[C@H](OC(=O)c4ccc(Cl)cc4)[C@H]1CC[C@H]2[C@@]12CO[C@@]3(O)[C@@H](O)[C@@H]1C(C)(C)CC[C@@H]2OC(C)=O

>  <test system>
CNE

>  <value operator>
=

>  <assay result>
1.31

$$$$
